Kindly state inhibition at 1 µM for each of the entries shown.
- EXPERIMENTAL_TARGET: serotonine transporter (SERT) receptor (Homo sapiens, UniProt P31645)
- Construct: expressed in transfected cells; host or cells: CHO cells
- Sequence (P31645 whole entry): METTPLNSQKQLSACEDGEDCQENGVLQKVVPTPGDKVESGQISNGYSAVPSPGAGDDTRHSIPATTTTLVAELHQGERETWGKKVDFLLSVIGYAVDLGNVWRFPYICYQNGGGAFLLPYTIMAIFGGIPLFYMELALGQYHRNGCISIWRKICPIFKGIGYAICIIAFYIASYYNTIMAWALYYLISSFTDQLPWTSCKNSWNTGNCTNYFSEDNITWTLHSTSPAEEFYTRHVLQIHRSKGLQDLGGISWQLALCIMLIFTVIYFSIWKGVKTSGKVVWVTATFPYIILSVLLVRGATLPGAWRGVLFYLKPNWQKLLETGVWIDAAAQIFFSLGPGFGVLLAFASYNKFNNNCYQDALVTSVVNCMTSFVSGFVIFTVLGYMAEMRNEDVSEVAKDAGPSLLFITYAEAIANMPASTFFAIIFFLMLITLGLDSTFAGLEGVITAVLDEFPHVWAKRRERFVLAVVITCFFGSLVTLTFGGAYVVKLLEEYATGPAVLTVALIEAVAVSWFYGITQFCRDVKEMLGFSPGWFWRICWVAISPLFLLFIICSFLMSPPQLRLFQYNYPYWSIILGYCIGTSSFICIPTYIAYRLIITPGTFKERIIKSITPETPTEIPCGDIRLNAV
- ASSAY_TEXT: Binding assay SERT (h), [3H]imipramine, CHO cells
- CONDITION_DETAILS: read-out: SERT [%]
One number for each entry, in %.

# annotated cases, reported inhibition at 1 µM shown
> print(dat)
                                   compound        assay.metric  measurement.units  experimental.result
1  O=S(=O)(NCCCCN1CCN(c2noc3ccccc23)CC1)c1ccc2c(c1)CCO2 [Compound 289]  inhibition at 1 µM                  %                    9
2  O=S(=O)(NCCCN1CCN(c2nsc3ccccc23)CC1)c1cccc(F)c1 [Compound 72]  inhibition at 1 µM                  %                   44
3  Cc1cccc(S(=O)(=O)NCCCN2CCC(c3noc4cc(F)ccc34)CC2)c1 [Compound 22]  inhibition at 1 µM                  %                   44
4  Cc1cccc(S(=O)(=O)NCCCCN2CCN(c3noc4ccccc34)CC2)c1 [Compound 15]  inhibition at 1 µM                  %                   -3

Give measured inhibition at 1 µM for every item shown.
1. Cc1[nH]c2ccc(Cl)cc2c1C1=CCN(CCCNS(=O)(=O)c2cccc(O)c2)CC1 [Compound 445]
2. O=S(=O)(NCCCCN1CCC(c2noc3cc(F)ccc23)CC1)c1csc2ccccc12 [Compound 313]
3. N#Cc1cccc(S(=O)(=O)NCCCCN2CCN(c3cccc4[nH]ccc34)CC2)c1 [Compound 362]
4. O=c1[nH]c2cccc(N3CCN(CCCCNS(=O)(=O)c4cccc5ccccc45)CC3)c2[nH]1 [Compound 418]
5. O=S(=O)(NCCCCN1CCN(c2cccc3c2OCCO3)CC1)c1ccc(F)c(F)c1 [Compound 389]

Key:
1. 68
2. 23
3. 37
4. 5
5. 44
